B1: Pistol ribozyme (parent)
chain: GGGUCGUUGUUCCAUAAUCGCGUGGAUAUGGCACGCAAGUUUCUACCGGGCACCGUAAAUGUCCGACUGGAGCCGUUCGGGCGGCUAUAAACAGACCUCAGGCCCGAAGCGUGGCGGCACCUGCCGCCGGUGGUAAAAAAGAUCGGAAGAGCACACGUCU

Variants of: B1
Assay: aptazyme ON/OFF ratio, guanine; higher = stronger switching; co-transcriptional cleavage with and without guanine
Kindly supply the reported aptazyme ON/OFF ratio values for the records listed here.

U8A G9U U10A U11G C12U C13G has a reported aptazyme ON/OFF ratio of 1.17

U8C G9A U10C C12G has a reported aptazyme ON/OFF ratio of 1.24

U8A G9A U10A U11A C12G C13G has a reported aptazyme ON/OFF ratio of 1.18

U8G G9C U10A U11G C12G C13A has a reported aptazyme ON/OFF ratio of 1.35

U7A U8C G9C U10G U11C C12A has a reported aptazyme ON/OFF ratio of 1.1

U8A U11G C12G C13U has a reported aptazyme ON/OFF ratio of 1.47

G9U U10C C12G has a reported aptazyme ON/OFF ratio of 2.12

U8G G9A U10G U11A C12G has a reported aptazyme ON/OFF ratio of 1.6

U7G U8A U10C has a reported aptazyme ON/OFF ratio of 2.69

U7C G9C U10G U11G C12A C13G has a reported aptazyme ON/OFF ratio of 1.12

U7C U8C G9A C12A C13G has a reported aptazyme ON/OFF ratio of 1.05

U7A U8C U10A U11A has a reported aptazyme ON/OFF ratio of 1.18

U8A G9A U10A U11G C12A has a reported aptazyme ON/OFF ratio of 1.01

U7C U8A G9U U11A C12A C13G has a reported aptazyme ON/OFF ratio of 1.18

U7A G9C U10A U11C C12U C13U has a reported aptazyme ON/OFF ratio of 1.12

U7A U8G G9A U10G U11A C13G has a reported aptazyme ON/OFF ratio of 1.16

G9A U10A U11A C12U has a reported aptazyme ON/OFF ratio of 1.68

U7G U8A G9U U10G U11G C12A has a reported aptazyme ON/OFF ratio of 1.24

U7A U8G G9U U10A U11A C12G C13U has a reported aptazyme ON/OFF ratio of 1.22

U7A U8C U10G C12A has a reported aptazyme ON/OFF ratio of 1.21

U8G G9C U10C U11A C12G C13A has a reported aptazyme ON/OFF ratio of 1.02

C12A C13A has a reported aptazyme ON/OFF ratio of 1.34

U7A U8G G9A U10A U11A C12A C13U has a reported aptazyme ON/OFF ratio of 1.29

U7C G9C U10C U11C C12U has a reported aptazyme ON/OFF ratio of 1.01

U7C U8G G9U U10C U11G C12G C13G has a reported aptazyme ON/OFF ratio of 1.15

U7G U8C U10C U11G C13U has a reported aptazyme ON/OFF ratio of 1.38

U7A U8G G9U U10G C13G has a reported aptazyme ON/OFF ratio of 1.32

U7A G9A U10C U11C C12U C13A has a reported aptazyme ON/OFF ratio of 1.03

U7C U8C G9A U11C C12U has a reported aptazyme ON/OFF ratio of 1.66

U7C U8G G9U U10C U11C C12G C13U has a reported aptazyme ON/OFF ratio of 1.04

G9U U10C U11G C13U has a reported aptazyme ON/OFF ratio of 1.52

U7A U8C G9A U10C C13A has a reported aptazyme ON/OFF ratio of 1.09

U7G U8C G9U U10G U11A C12A has a reported aptazyme ON/OFF ratio of 1.3

U7C U8G G9A U10C U11A C12G C13U has a reported aptazyme ON/OFF ratio of 1.11

U7G G9A U11G C13A has a reported aptazyme ON/OFF ratio of 1.11

U8G C12U C13G has a reported aptazyme ON/OFF ratio of 1.4

U7C U8C U10A C13G has a reported aptazyme ON/OFF ratio of 1.05

U7A G9U U10G U11G C12G C13U has a reported aptazyme ON/OFF ratio of 1.45

U7C U8G U10A C13A has a reported aptazyme ON/OFF ratio of 1.15

U7A U8C G9A U10A U11A has a reported aptazyme ON/OFF ratio of 1.19

U8G G9A U10G U11G has a reported aptazyme ON/OFF ratio of 1.59

U8G G9U U10G U11C has a reported aptazyme ON/OFF ratio of 1.02

U7C U8A G9A U10G C12A C13A has a reported aptazyme ON/OFF ratio of 1.14

U7G U10C U11A C12U has a reported aptazyme ON/OFF ratio of 1.2

U8G G9U U10C U11C C12U C13U has a reported aptazyme ON/OFF ratio of 1.06

U7C U8A U11G C12G C13G has a reported aptazyme ON/OFF ratio of 1.13
